Recorded pKi by entry
- STUDY SYSTEM: N-formyl peptide receptor 2 (Homo sapiens)
- Sequence (P25090 whole entry): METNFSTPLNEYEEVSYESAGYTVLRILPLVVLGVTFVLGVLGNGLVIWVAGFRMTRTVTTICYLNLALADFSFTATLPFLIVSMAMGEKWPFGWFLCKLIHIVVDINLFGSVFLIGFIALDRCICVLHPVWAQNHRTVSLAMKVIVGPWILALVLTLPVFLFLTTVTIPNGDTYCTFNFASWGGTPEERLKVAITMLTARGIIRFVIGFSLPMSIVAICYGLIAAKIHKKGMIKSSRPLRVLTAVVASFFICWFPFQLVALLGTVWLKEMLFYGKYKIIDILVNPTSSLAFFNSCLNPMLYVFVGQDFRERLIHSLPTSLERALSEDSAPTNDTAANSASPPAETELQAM
pKi: −log10 of the molar value.

See these solved cases before continuing.
> print(dat)
                                   compound                              study.system  measured.parameter  reported.result
1  COc1ccc(C2C(C(=O)c3ccccc3)C(=O)C(=O)N2c2cccc(Cl)c2)c(OC)c1 (configuration not stated)  N-formyl peptide receptor 2 (Homo sapiens)                 pKi           < 4.39
2  COc1ccc(C2C(C(=O)c3cccs3)C(=O)C(=O)N2CCCn2ccnc2)cc1 (configuration not stated)  N-formyl peptide receptor 2 (Homo sapiens)                 pKi           < 4.39

Next compound, please.
QUERY: Reported pKi, compound CCCCCCN1C(=O)C(=O)C(C(=O)c2ccccc2)C1c1ccc(O)c(OC)c1 (configuration not stated) : ____
RESULT: < 4.39

Cited source for all entries: BindingDB's records for doi:10.7270/Q26M3571
